Target: ZNRF2
Test: pooled miR-30 sensor sort-seq; sequence = guide strand; note: reference of the scale not given here
Details: shRNA
# sensor-assay potency score (higher = more potent) >= -0.5 gives t, anything below gives f

Q: Check if sensor-assay potency score (higher = more potent) >= -0.5 (inclusive). Item: TGCATAGACAAGGCAGTCGTGC
Result: f

Q: Check if sensor-assay potency score (higher = more potent) >= -0.5 (inclusive). Item: TACTTCAAACCATTCATCTATG
Result: f

Q: Check if sensor-assay potency score (higher = more potent) >= -0.5 (inclusive). Item: TCGTGCTATAGTATCTCCCTGC
Result: t

Q: Check if sensor-assay potency score (higher = more potent) >= -0.5 (inclusive). Item: ATAGACAAGGCAGTCGTGCTAT
Result: t

Q: Check if sensor-assay potency score (higher = more potent) >= -0.5 (inclusive). Item: TTTATCAGTATTACCTATGTAG
Result: t

Q: Check if sensor-assay potency score (higher = more potent) >= -0.5 (inclusive). Item: TTAAACACATTACAAGATGCAA
Result: t

----------
Biological target: TXNDC2
Assay: pooled miR-30 sensor sort-seq; sequence = guide strand
Conditions: shRNA
Readout: sensor-assay potency score (higher = more potent)
Keep it simple and answer with nothing but the number.

Q: Need sensor-assay potency score (higher = more potent) of TTCTTCTGAGGACTTGGGGAGG , thanks.
Result: -1.18

Q: Need sensor-assay potency score (higher = more potent) of TTTCCAAGAACTCTAGGGCCAG , thanks.
Result: -0.912

Q: Need sensor-assay potency score (higher = more potent) of TTTTTCTGAGGACTTGGGGAGG , thanks.
Result: -1.18

Q: Need sensor-assay potency score (higher = more potent) of TTTTATAAAACTGAAAGGTTGG , thanks.
Result: -0.0568

Q: Need sensor-assay potency score (higher = more potent) of TCTTCTGAGGACTTGGGGCTGT , thanks.
Result: -0.284

Q: Need sensor-assay potency score (higher = more potent) of TAGGATGTCACCCTCCTTGGAT , thanks.
Result: -0.739

Q: Need sensor-assay potency score (higher = more potent) of AAGAATGGTCTGATGGTCCTGC , thanks.
Result: 0.56

----------
Target: RASL10B
Assay: pooled miR-30 sensor sort-seq; sequence = guide strand
Conditions: shRNA
Readout: sensor-assay potency score (higher = more potent)
Keep it simple and answer with nothing but the number.

Q: Request body: readout sensor-assay potency score (higher = more potent), system RASL10B, query ATGTAGGCGTGGACACTCCGGA . Return the value.
Result: -0.908

Q: Request body: readout sensor-assay potency score (higher = more potent), system RASL10B, query TCCACGTAGCCGCACTTCCAGG . Return the value.
Result: -2

Q: Request body: readout sensor-assay potency score (higher = more potent), system RASL10B, query TTCTAAATCGGTACAAAACTGA . Return the value.
Result: -0.599

Q: Request body: readout sensor-assay potency score (higher = more potent), system RASL10B, query AACTCGTTGTACAAGAACTGGC . Return the value.
Result: 0.0656

Q: Request body: readout sensor-assay potency score (higher = more potent), system RASL10B, query TAGGTTGTTGTGTCTCTGGGGG . Return the value.
Result: 0.276

Q: Request body: readout sensor-assay potency score (higher = more potent), system RASL10B, query TTAATCAGGATAGTCTGAGATC . Return the value.
Result: -1.01

----------
Target: ASF1A
Test: pooled miR-30 sensor sort-seq; sequence = guide strand
Settings: shRNA
# sensor-assay potency score (higher = more potent) >= -0.03 gives rule met, anything below gives rule not met

Q: Check if sensor-assay potency score (higher = more potent) >= -0.03 (inclusive). Item: TAAAACAGAGTCTAAAACTTGA
Result: rule met

Q: Check if sensor-assay potency score (higher = more potent) >= -0.03 (inclusive). Item: TAATTTTCCATTCCAAGTCTTC
Result: rule not met

Q: Check if sensor-assay potency score (higher = more potent) >= -0.03 (inclusive). Item: TAATAAATTCTTGTCCTCGATA
Result: rule not met

Q: Check if sensor-assay potency score (higher = more potent) >= -0.03 (inclusive). Item: TAACATGACATTTAGTGAGTTT
Result: rule not met

Q: Check if sensor-assay potency score (higher = more potent) >= -0.03 (inclusive). Item: TCTAACATGACATTTAGTGAGT
Result: rule met

Q: Check if sensor-assay potency score (higher = more potent) >= -0.03 (inclusive). Item: TGAAATACAAACATATGCCTTC
Result: rule met

----------
Target: SRCAP
Experiment: pooled miR-30 sensor sort-seq; sequence = guide strand
Conditions: shRNA
# sensor-assay potency score (higher = more potent) >= 0.1 gives class 1, anything below gives class 0

Q: Check if sensor-assay potency score (higher = more potent) >= 0.1 (inclusive). Item: TTAATGACAATGTCTGAGTTGG
Result: class 1

Q: Check if sensor-assay potency score (higher = more potent) >= 0.1 (inclusive). Item: TTGCTTGAATTGCACCACCTTC
Result: class 0

Q: Check if sensor-assay potency score (higher = more potent) >= 0.1 (inclusive). Item: AACTCTAGTAGATCCATCCAGG
Result: class 0

Q: Check if sensor-assay potency score (higher = more potent) >= 0.1 (inclusive). Item: TTTATCTCCAACACCTGAGGGG
Result: class 1

Q: Check if sensor-assay potency score (higher = more potent) >= 0.1 (inclusive). Item: TTCCACTTGCTCTTCTGCCTGT
Result: class 1

Q: Check if sensor-assay potency score (higher = more potent) >= 0.1 (inclusive). Item: TGTTCTTCAACTTCAATCGTTT
Result: class 0

----------
Biological target: CRB1
Assay: pooled miR-30 sensor sort-seq; sequence = guide strand
Settings: shRNA
Readout: sensor-assay potency score (higher = more potent)
Keep it simple and answer with nothing but the number.

Q: Need sensor-assay potency score (higher = more potent) of TTACATCTTGGATACAGCCTTT , thanks.
Result: -0.193

Q: Need sensor-assay potency score (higher = more potent) of TTTATATTGTCAATAGCTCTGT , thanks.
Result: 0.0403

Q: Need sensor-assay potency score (higher = more potent) of TTATATTGTCAATAGCTCTGTC , thanks.
Result: 0.532

Q: Need sensor-assay potency score (higher = more potent) of TTTGAGAAATTGCTCTTCCTGA , thanks.
Result: -0.258

Q: Need sensor-assay potency score (higher = more potent) of TGTCTGAACAAGAACAATCATT , thanks.
Result: -1.04

Q: Need sensor-assay potency score (higher = more potent) of TTGAGGTCGATCTCACACTGGG , thanks.
Result: -0.294

Q: Need sensor-assay potency score (higher = more potent) of ATAAATATCTGTATTATCCTTC , thanks.
Result: 0.756

Q: Need sensor-assay potency score (higher = more potent) of TTGAAGAACATTCATTGACGTC , thanks.
Result: -0.696

----------
Kindly state sensor-assay potency score (higher = more potent) for each of the entries shown.
Molecular target: LHCGR
Experiment: pooled miR-30 sensor sort-seq; sequence = guide strand
Settings: shRNA
Keep it simple and answer with nothing but the number.

Q: Need sensor-assay potency score (higher = more potent) of TTTGGTGGAAGAAATATCCAAG , thanks.
Result: -0.193

Q: Need sensor-assay potency score (higher = more potent) of TATAGTTTGAGTGTTACAGATT , thanks.
Result: -0.877

Q: Need sensor-assay potency score (higher = more potent) of TCCATTGTGCATCTTCTCCAGA , thanks.
Result: -0.921

Q: Need sensor-assay potency score (higher = more potent) of TTATTTGATCCAGTGAAGCCAT , thanks.
Result: -0.633

Q: Need sensor-assay potency score (higher = more potent) of TAGTCGAGTGAGACCGGCCGTG , thanks.
Result: -0.508

----------
Kindly state sensor-assay potency score (higher = more potent) for each of the entries shown.
Biological target: RORB
Test: pooled miR-30 sensor sort-seq; sequence = guide strand
Conditions: shRNA
Keep it simple and answer with nothing but the number.

Q: Need sensor-assay potency score (higher = more potent) of TTCCAGTCATGTCAAGTCCTGA , thanks.
Result: -0.578

Q: Need sensor-assay potency score (higher = more potent) of ATCATTTTGACAGAGCTCCATG , thanks.
Result: -1.14

Q: Need sensor-assay potency score (higher = more potent) of TTGATCATTTTGACAGAGCTCC , thanks.
Result: 0.0925

Q: Need sensor-assay potency score (higher = more potent) of TTGCTTAAATACCTGCAGCTTC , thanks.
Result: -0.375

Q: Need sensor-assay potency score (higher = more potent) of TATAACGGAGGAAACAGTGTAT , thanks.
Result: 0.0235

Q: Need sensor-assay potency score (higher = more potent) of TTAATTTCTTCATAGGTGTGGG , thanks.
Result: 0.03

Q: Need sensor-assay potency score (higher = more potent) of TATCTGTTTGATTCCAGTCATG , thanks.
Result: -1.6

Value source: the OligoGym collection
